Tick met if logP is 2 or greater. Tick not met if logP is less than 2.

**Q:** Assess whether reported logP for CN(Cc1ccccc1)N=Nc1[nH]cnc1C(N)=O sits at 2 or higher.
**A:** not met

**Q:** Determine whether measured logP meets or exceeds 2 for O=[N+]([O-])c1ccc(OCCn2ccnn2)cc1
**A:** not met

**Q:** Check this molecule for logP at or above 2: COc1cc(C=O)ccc1OCCOC(=O)c1ccc(Cl)cc1
**A:** met

**Q:** Could you tell me if the measured logP of O=[N+]([O-])c1ccc(/C=C/c2cccc(CO)n2)o1 reaches 2 or more?
**A:** not met

**Q:** Hi, just wondering whether CCOC(CP(=O)(OCC)OCC)OCC shows logP of 2 or higher.
**A:** not met

**Q:** Quick check, logP >= 2? COCC(=O)Nc1ccc(Cl)c(Cl)c1
**A:** met

**Q:** Hello, I need to know if O=C(O)c1cc(=O)c2ccccc2o1 has measured logP not below 2. Thanks!
**A:** not met

**Q:** Is logP at least 2? Consider CCCOCCC(=O)N(C)c1ccc(S(=O)(=O)N(C)C)cc1
**A:** not met

**Q:** Is it the case that CS(=O)(=O)OCCCNCCCOS(C)(=O)=O has logP reaching or exceeding 2?
**A:** not met

**Q:** Identify whether the reported logP of the following molecule is 2 or greater: C=CCN(C)N=Nc1ccc(C(N)=O)cc1
**A:** met

Others:
**Q:** Is the recorded value of logP equal to or greater than 2 for this molecule? CC(C)(NC(=O)N(CCCl)N=O)C(=O)O
**A:** not met

**Q:** Given the entry O=C1CC(C(=O)O)Oc2ccccc21 (stereo unspecified) , answer whether its logP meets or surpasses 2.
**A:** not met

**Q:** Kindly determine if logP recorded for O=C1/C(=C2\Nc3ccccc3C2=O)Nc2ccccc21 is above or exactly 2.
**A:** met

**Q:** Could you verify whether the entry CCCCCCCCNC(N)=NNC(=O)Nc1ccc(Cl)cc1 shows logP of no less than 2?
**A:** met

**Q:** Please check the record CC1(C)OC2CC3C4CC(F)C5=CC(=O)C(Cl)=CC5(C)C4(F)C(O)CC3(C)C2(C(=O)CO)O1 (stereo unspecified) and state if its logP is at or above 2.
**A:** met

**Q:** Check if logP >= 2 (inclusive). Item: Cn1cnc2ccccc2c1=O
**A:** not met

**Q:** Decide: logP of Nc1nc(N)c2ncn(COCCO)c2n1 >= 2?
**A:** not met

**Q:** Exam item: decide whether the reported logP for CC=CC(=O)Nc1ccc(Cl)c(Cl)c1 is at least 2.
**A:** met

**Q:** Please tell me: is the molecule CN(C)C(=S)NCc1ccccc1 at or over 2 in terms of logP?
**A:** not met

**Q:** Say whether CCCCCC1CNC(C(=O)NC(C(C)Cl)C2OC(SC)C(O)C(O)C2O)C1 (stereo unspecified) shows logP of 2 or more.
**A:** met

**Q:** Form field: logP at least 2? Entry: Cc1ccc(Cc2c[nH]c(NCCCCc3ccc(Br)cc3C)nc2=O)cn1
**A:** met

**Q:** Is the recorded value of logP equal to or greater than 2 for this molecule? NCC(CC(=O)O)c1ccc(Cl)cc1 (stereo unspecified)
**A:** not met

**Q:** Threshold query (logP >= 2) on CCC(CC)C1=Nc2ccccc2S(=O)(=O)N1
**A:** not met

**Q:** Say whether N[C@@H](CSC(c1ccccc1)(c1ccccc1)c1ccccc1)C(=O)O shows logP of 2 or more.
**A:** met

**Q:** Hello, I need to know if CC(=O)Nc1cccc(I)c1 has measured logP not below 2. Thanks!
**A:** met

* * *

Recorded logP, one value per entry.
// no unit, no text: just the number

**Q:** // logP lookup, key: Cc1c(N(C)C)c(=O)n(C)c(=O)n1C
**A:** 0.99

**Q:** Which logP is listed for CN(C(=O)CCC(N)=O)c1ccc(S(=O)(=O)N(C)C)cc1 ?
**A:** -0.56

**Q:** Would you mind telling me what logP value was observed for CC(=O)Nc1ccccc1C#N ?
**A:** 0.57

**Q:** Name the recorded logP for O=C(Cc1ccccc1)Nc1ccc(Cl)c(Cl)c1 .
**A:** 4.47

**Q:** If you can, please state the reported logP value of Cc1cccc(C)c1NC(=O)c1cccc(CN2CCOCC2)c1 .
**A:** 2.14

**Q:** Fill blank: measured logP of the compound N#CN=Nc1ccccc1 is ____.
**A:** 2.3

New cases:
**Q:** Entry under review: CSc1ccccc1NC(C)=O . Reported logP?
**A:** 1.53

**Q:** Look up logP: CC(=O)Nc1ccc2c(c1)S(=O)(=O)c1ccccc1C2=O
**A:** 2.35

**Q:** Quick one: logP of Cc1c2ccncc2cc2c1[nH]c1ccccc12 ?
**A:** 4.06

* * *

outcome_measure: logP
Lab note: record just the number, no unit beside it.

**Q:** // returns reported logP for input COc1cc(C=O)ccc1OCCOC(=O)c1ccccc1Cl
**A:** 3.21

**Q:** Any idea what its logP is? The compound is COC1OC(CNC(=O)N(C)N=O)C(O)C(O)C1O (stereo not given)
**A:** -1.57

**Q:** Looking for the measured logP of O=NN1CCCCC1=O , can you help?
**A:** -1.05

**Q:** Quick one: logP for COc1ccc(-c2nc3ncccc3[nH]2)c(OC)c1 ?
**A:** 2.57

Further cases:
**Q:** Which logP reading was recorded for the compound COc1cc(C=O)ccc1OCCOC(=O)c1cccc(Cl)c1 ?
**A:** 3.67

**Q:** Look up logP for this compound: COC1OC(CO)C(O)C(NC(=O)N(C)N=O)C1O (stereo not given)
**A:** -0.82

* * *

Reported logP values are given for each entry in this list.

Consider the following illustrative entries.
**Q:** Bench note: what logP did CSc1ccc(NC(C)=O)cc1 show?
**A:** 2.03

**Q:** # lookup: logP of C=CCn1c(=O)c(N(C)C)c(C)n(-c2ccccc2)c1=O
**A:** 1.98

**Q:** Given the compound O=CC=Cc1ccco1 , what is its reported logP?
**A:** 1.15

**Q:** Which measured logP value corresponds to CCCC1CNC(C(=O)NC(C(C)O)C2OC(SC)C(O)C(O)C2O)C1 (stereo not given) ?
**A:** 0.04

Next up:
**Q:** # query: logP of entry N#CCCN(CCC#N)/N=N/c1nc[nH]c1C(N)=O
**A:** -0.76

* * *

Catalogue of logP readings, one per entry.
Respond with the number and no other words.

**Q:** Find the recorded logP belonging to NC1=NC(C(F)(F)F)(C(F)(F)F)NC1(C(F)(F)F)C(F)(F)F and report it.
**A:** 3.35

**Q:** I would be grateful if you could share the reported logP for CC(C)(C)/[N+]([O-])=C/c1ccccc1 .
**A:** 1.26

**Q:** logP lookup needed for CCOC(=O)CCC(=O)N(C)c1cccc(S(=O)(=O)N(C)C)c1 , thanks.
**A:** 0.84

**Q:** Can you look up the measured logP of CC(=O)N(C)c1ccc(S(=O)(=O)N(C)C)cc1 for me?
**A:** 0.23

* * *

Label rule, in plain words: logP of 1 and up is class 1, under 1 is class 0.

Solved cases below.
**Q:** Does logP meet or surpass 1 for CC(=O)Nc1ccc2oc(C)c(C)c(=O)c2c1 ?
**A:** class 1

**Q:** Record O=C(O)c1cc(=O)c2c(OCC(O)COc3cccc4oc(C(=O)O)cc(=O)c34)cccc2o1 ; criterion: logP no lower than 1. Met?
**A:** class 1

**Q:** Kindly determine if logP recorded for CS(=O)(=O)F is above or exactly 1.
**A:** class 0

**Q:** Evaluate CCNCC(F)(F)F : logP at minimum 1?
**A:** class 0

More entries:
**Q:** Check the entry COc1cc(C=NO)ccc1OCCOC(=O)c1ccccc1OC : does logP equal or exceed 1?
**A:** class 1

**Q:** Could you verify whether the entry CCCCNc1c(C)n(C)c(=O)n(-c2ccccc2)c1=O shows logP of no less than 1?
**A:** class 1

**Q:** Textbook exercise: given the entry CC(=O)Nc1ccc(Oc2ccccc2)cc1 , state whether its logP is greater than or equal to 1.
**A:** class 1

**Q:** Dear colleague, could you confirm whether CCCCC1OC(=O)c2cc(N(CCO)CCO)ccc21 (stereo not drawn) has logP at or above 1?
**A:** class 1

**Q:** Tell me whether logP is at least 1 here: CC(=O)NC1CCSC1=O (stereo not drawn)
**A:** class 0

**Q:** Does the compound N=c1ccn2c(n1)O[C@H]1[C@H](O)[C@@H](CO)O[C@H]12 have recorded logP that is 1 or more?
**A:** class 0

**Q:** Exam item: decide whether the reported logP for CCOC(=O)C(=Cc1ccc(OC)c(OC)c1)C(=O)OCC is at least 1.
**A:** class 1

**Q:** Check if logP >= 1 (inclusive). Item: CN(C)/N=N/c1ccccc1C(=O)NCC#N
**A:** class 1

**Q:** Decide: is the reported value of logP for CC(=O)NN=CCCc1ccccc1 equal to or greater than 1?
**A:** class 1

**Q:** Determine whether measured logP meets or exceeds 1 for CN(C(=O)CCC#N)c1ccc(S(=O)(=O)N(C)C)cc1
**A:** class 0

**Q:** hey, is logP for this one >= 1? CC(=O)NNC(=O)c1ccccc1N(C)C
**A:** class 1

**Q:** hey, is logP for this one >= 1? COC(=O)CCC(=O)N(C)c1ccc(S(=O)(=O)N(C)C)cc1
**A:** class 0

**Q:** Is logP for CC(=O)Nc1cccc(OCc2cccc(N3C(N)=NC(N)=NC3(C)C)c2)c1 at or above 1?
**A:** class 1

**Q:** Could you verify whether the entry Cc1[nH]c(=O)[nH]c(=O)c1N(CCF)CCCl shows logP of no less than 1?
**A:** class 0

**Q:** Reported logP at or above 1? CN(C)c1ccc(C(=C2C=CC(=[N+](C)C)C=C2)c2ccc(N(C)C)cc2)cc1.[Cl-]
**A:** class 0

**Q:** Hi team, for O=S(=O)(NS(=O)(=O)c1ccccc1)c1ccccc1 , is the recorded logP at or above 1?
**A:** class 0

**Q:** Confirm if logP reported for the compound CCC(=O)OCC(=O)C1(OC(=O)CC)C(C)CC2C3CC(F)C4=CC(=O)C(Cl)=CC4(C)C3(F)C(O)CC21C (stereo not drawn) is 1 or above.
**A:** class 1

**Q:** In plain terms: is recorded logP at least 1 for c1cc2n(n1)CCN2 ?
**A:** class 0
